Molecular target: Autotaxin (Homo sapiens)
Test: Quanta Red Assay: Measuring ATX activity using an enzyme coupled Quanta Red assay (Thermo Scientific Pierce Protein Research Products, Product #15159) was determined as follows. 8 μL human recombinant ATX (final concentration 0.8 μg/mL) in 1× Assay buffer containing 50 mM Tris-HCl (pH 8.0), 5 mM CaCl2 was added to an opaque black flat-bottom 384-well plate (Corning, #3575) containing 2 μL test compound in 40% DMSO (4% final DMSO concentration). 10 μL of Quanta Red, Horseradish peroxidase (HRP), Choline Oxidase (CO), Rac-1-Palmitoyl-glycero-3-phosphocholine solution (final concentration 1:250 for Quanta Red, 0.5units/ml HRP, 0.5units/ml CO, 15 μM Rac-1-Palmitoyl-glycero-3-phosphocholine) in 1× assay buffer (as described previously) was added to each well to start the reaction and the plate was incubated at room temperature for 2 hours. The reaction was stopped after 2 hours with a 20 μL addition of Quanta Red Stop solution (1:20 dilution in distilled water). The above-described mixture with DMSO alone was used as a positive control whereas that with DMSO alone without ATX was taken as a negative control. For each test compound, ten concentrations were measured covering a range of 6.1 nM to 120 μM to determine IC50 values. The top concentration was decreased to 1.2 μM when a test compound's IC50 value was evaluated in low nanomolar range. Fluorescence was determined in a BMG Labtech Pherastar plus plate reader (λ emission=540 nm, λ excitation=590 nm). Data were analysed using Excel fit software.
pIC50: −log10 of the molar value.
Where pIC50 equals or exceeds 8, the correct label is rule met; where it does not, the label is rule not met.

Record excerpt, results attached:
INSERT INTO assay_data (compound, category_label) VALUES
  ('O=C(Nc1cc(CCc2ccc(Cl)cc2)[nH]n1)C1CC(=O)N(c2ccc(CN3CCOCC3)cc2)C1 (stereo not drawn)', 'rule met'),
  ('CN1CCN(Cc2ccc(N3C[C@H](NC(=O)c4nnc(CCc5ccc(Cl)cc5)s4)CC3=O)cc2)CC1', 'rule not met');

Now consider the entry below.
In plain terms: is recorded pIC50 at least 8 for O=C(Nc1nnc(CCC2CCOCC2)s1)C1CC(=O)N(c2ccc(CN3CCOCC3)cc2)C1 (stereo not drawn) ?
rule not met
